Every entry's value here was drawn from patent US4550115A.

Test: physchem
Conditions: phosphate buffer, pH 7.4
Listed next: entries and their corresponding remaining at 3 h.
Number in %, nothing else.

Ask: Reported remaining at 3 h, compound Cc1c(-c2ccccc2)oc2c(C(=O)OC(C)(C)CN3CCCCC3)cccc2c1=O [Active compound 5] : ____
Reply: 91

* * *

Experiment: in vivo
Conditions: mouse, ip
Structures can show the parent of a compound that is named as a salt.
Measured LD50, listed per entry for reference.
Reply with just the number (in µmol/kg).

Take a look at these entries with their results.
>>> numericresult("Cc1c(-c2ccccc2)oc2c(C(=O)OC3CCN(C)CC3)cccc2c1=O")
150
>>> numericresult("Cc1c(-c2ccccc2)oc2c(C(=O)OC(C)CCN3CCCCC3)cccc2c1=O (stereo not drawn)")
160
>>> numericresult("Cc1c(-c2ccccc2)oc2c(C(=O)OC3CCCN(C)C3)cccc2c1=O.Cl (stereo not drawn)")
360
>>> numericresult("Cc1c(-c2ccccc2)oc2c(C(=O)OC3CC4CCC(C3)N4C)cccc2c1=O (stereo not drawn) [Active compound 12, 3-tropinyl-3-methylflavone-8-carboxylate]")
420
>>> numericresult("Cc1c(-c2ccccc2)oc2c(C(=O)OCCN3CCCCC3)cccc2c1=O [FLAVOXATE, hydrochloride, reference compound]")
900

Ask: // query LD50 value for entry Cc1c(-c2ccccc2)oc2c(C(=O)OC3CCCCC3CN3CCCCC3)cccc2c1=O (stereo not drawn)
Reply: 190

Ask: Reported LD50 for Cc1c(-c2ccccc2)oc2c(C(=O)OC(C)CN3CCCCC3)cccc2c1=O (stereo not drawn) : what is it?
Reply: 500

Ask: Entry Cc1c(-c2ccccc2)oc2c(C(=O)OCCCN3CCCCC3C)cccc2c1=O (stereo not drawn) [Active compound 1, hydrochloride] has what LD50?
Reply: 560

Ask: Name the reported LD50 value associated with the molecule Cc1c(-c2ccccc2)oc2c(C(=O)OCC(O)CN3CCCCC3)cccc2c1=O (stereo not drawn)
Reply: 580

* * *

Listing of entries alongside the reported remaining at 3 h.
Assay: physchem
Details: phosphate buffer, pH 7.4
Structures can show the parent of a compound that is named as a salt.
Write the number in % without appending the unit.

The examples below pair each entry with its known result.
>>> numericresult("Cc1c(-c2ccccc2)oc2c(C(=O)OC3CC4CCC(C3)N4C)cccc2c1=O (stereo not drawn) [Active compound 12, 3-tropinyl-3-methylflavone-8-carboxylate]")
100
>>> numericresult("Cc1c(-c2ccccc2)oc2c(C(=O)OC3CCCN(C)C3)cccc2c1=O.Cl (stereo not drawn) [Active compound 11, hydrochloride]")
100
>>> numericresult("Cc1c(-c2ccccc2)oc2c(C(=O)OC(CN3CCCCC3)c3ccccc3)cccc2c1=O (stereo not drawn) [Active compound 4, 1-phenyl-2-piperidino-ethyl]")
34
>>> numericresult("Cc1c(-c2ccccc2)oc2c(C(=O)OC(C)CN3CCCCC3)cccc2c1=O (stereo not drawn) [Active compound 3, 1-methyl-piperidino-ethyl]")
30

Ask: Which remaining at 3 h reading was recorded for the compound Cc1c(-c2ccccc2)oc2c(C(=O)OCCN3CCCCC3)cccc2c1=O [FLAVOXATE, hydrochloride, reference compound] ?
Reply: 10

Ask: Bench note: what remaining at 3 h did Cc1c(-c2ccccc2)oc2c(C(=O)O[C@@H]3CCCC[C@@H]3N3CCCCC3)cccc2c1=O.Cl (relative stereo) [Active compound 8, hydrochloride] show?
Reply: 70

* * *

Test system: guinea pig isolated ureter
Assay: Antispastic activity, spontaneous mobility of guinea pig isolated ureter (Trendelemburg method)
Conditions: Cavia porcellus, read-out: Antispastic Activity Isolated Ureter ED50, longitudinal contractions
valueKind: IC50 (µM)
Entry rule: numbers only, all in µM.

Ask: Which IC50 is reported for this compound? Cc1c(-c2ccccc2)oc2c(C(=O)OC3CC4CCC(C3)N4C)cccc2c1=O (stereo not shown) [Active compound 12, 3-tropinyl-3-methylflavone-8-carboxylate]
Reply: 9

* * *

Listed compounds paired with reported remaining at 3 h
Assay: physchem
Settings: phosphate buffer, pH 7.4
Write the number in % without appending the unit.

>>> numericresult("Cc1c(-c2ccccc2)oc2c(C(=O)OC(C)CCN3CCCCC3)cccc2c1=O (stereo not drawn)")
100
>>> numericresult("Cc1c(-c2ccccc2)oc2c(C(=O)OC3CCCCC3CN3CCCCC3)cccc2c1=O (stereo not drawn)")
87

Alright, here's another compound for you.
Ask: // remaining at 3 h lookup, key: Cc1c(-c2ccccc2)oc2c(C(=O)OC(C)(C)CN3CCCCC3C)cccc2c1=O (stereo not drawn)
Reply: 100

* * *

Experiment: in vivo
Settings: mouse, po
Where a name gives a salt, the structure may show the parent alone.
Param label: returns 1 when LD50 < 1000 µmol/kg, returns 0 otherwise, including exact equality.

For orientation, consider the following solved cases.
>>> label("Cc1c(-c2ccccc2)oc2c(C(=O)OC3CCCCC3CN3CCCCC3)cccc2c1=O (stereo not drawn) [Active compound 9, 2-piperidinomethyl cyclohexyl]")
0
>>> label("Cc1c(-c2ccccc2)oc2c(C(=O)OC3CCCN(C)C3)cccc2c1=O.Cl (stereo not drawn) [Active compound 11]")
1
>>> label("Cc1c(-c2ccccc2)oc2c(C(=O)OC3CC4CCC(C3)N4C)cccc2c1=O (stereo not drawn) [Active compound 12, 3-tropinyl-3-methylflavone-8-carboxylate]")
1

Ask: Strictly below 1000 µmol/kg in LD50? Cc1c(-c2ccccc2)oc2c(C(=O)OCCN3CCCCC3)cccc2c1=O [FLAVOXATE, hydrochloride, reference compound]
Reply: 0

Ask: For this molecule, is LD50 lower than 1000 µmol/kg? Cc1c(-c2ccccc2)oc2c(C(=O)O[C@@H]3CCCC[C@@H]3N3CCCCC3)cccc2c1=O.Cl (relative stereo) [Active compound 8]
Reply: 0

Ask: Is LD50 of Cc1c(-c2ccccc2)oc2c(C(=O)OC(C)CN3CCCCC3)cccc2c1=O (stereo not drawn) [Active compound 3, 1-methyl-piperidino-ethyl] strictly below 1000 µmol/kg?
Reply: 1

* * *

Test: in vivo
Conditions: mouse, po
Counter-ions that a name gives are not always drawn.
valueKind: LD50

Reference set, count: 3
>>> result("Cc1c(-c2ccccc2)oc2c(C(=O)OC(C)CCN3CCCCC3)cccc2c1=O (stereo not shown) [Active compound 2, 1-methyl-3-(N-piperidino)propyl]")
"690 µmol/kg"
>>> result("Cc1c(-c2ccccc2)oc2c(C(=O)OC3CCN(C)CC3)cccc2c1=O [Active compound 10, 1-methyl-4-piperidinyl]")
"850 µmol/kg"
>>> result("Cc1c(-c2ccccc2)oc2c(C(=O)OCC(O)CN3CCCCC3)cccc2c1=O (stereo not shown) [Active compound 7]")
"3100 µmol/kg"

Consider now this further compound.
Ask: Can you share its LD50? I mean this compound: Cc1c(-c2ccccc2)oc2c(C(=O)OCCCN3CCCCC3C)cccc2c1=O (stereo not shown) [Active compound 1, hydrochloride]
Reply: 1860 µmol/kg

* * *

Assay: physchem
Conditions: phosphate buffer, pH 7.4
Where a name gives a salt, the structure may show the parent alone.
This section presents molecules with their documented remaining at 1 h values.
# value in %; strip the unit string

Before answering, review these 5 worked examples.
>>> numericresult("Cc1c(-c2ccccc2)oc2c(C(=O)OCC(O)CN3CCCCC3)cccc2c1=O (stereo not shown)")
44
>>> numericresult("Cc1c(-c2ccccc2)oc2c(C(=O)OCCN3CCCCC3)cccc2c1=O [FLAVOXATE, hydrochloride, reference compound]")
22
>>> numericresult("Cc1c(-c2ccccc2)oc2c(C(=O)OC(C)(C)CN3CCCCC3)cccc2c1=O")
96
>>> numericresult("Cc1c(-c2ccccc2)oc2c(C(=O)O[C@@H]3CCCC[C@@H]3N3CCCCC3)cccc2c1=O.Cl (relative stereo) [Active compound 8, hydrochloride]")
85
>>> numericresult("Cc1c(-c2ccccc2)oc2c(C(=O)OC(C)(C)CN3CCCCC3C)cccc2c1=O (stereo not shown)")
100

Ask: Param item = Cc1c(-c2ccccc2)oc2c(C(=O)OC(C)CN3CCCCC3)cccc2c1=O (stereo not shown) ; retrieve measured remaining at 1 h.
Reply: 40

Ask: Fill blank: measured remaining at 1 h of the molecule Cc1c(-c2ccccc2)oc2c(C(=O)OC3CCN(C)CC3)cccc2c1=O is ____.
Reply: 100

Ask: Name the reported remaining at 1 h value associated with the molecule Cc1c(-c2ccccc2)oc2c(C(=O)OCCCN3CCCCC3C)cccc2c1=O (stereo not shown) [Active compound 1, hydrochloride]
Reply: 100

Ask: What value of remaining at 1 h has been reported for the following molecule? Cc1c(-c2ccccc2)oc2c(C(=O)OC3CC4CCC(C3)N4C)cccc2c1=O (stereo not shown) [Active compound 12, 3-tropinyl-3-methylflavone-8-carboxylate]
Reply: 100

Ask: Which remaining at 1 h value is on record for Cc1c(-c2ccccc2)oc2c(C(=O)OC(C)CCN3CCCCC3)cccc2c1=O (stereo not shown) ?
Reply: 100

Ask: Returns the measured remaining at 1 h for the input molecule. Input: Cc1c(-c2ccccc2)oc2c(C(=O)OC(CN3CCCCC3)c3ccccc3)cccc2c1=O (stereo not shown)
Reply: 68

Ask: Look at this molecule and give its reported remaining at 1 h. Cc1c(-c2ccccc2)oc2c(C(=O)OC3CCCCC3CN3CCCCC3)cccc2c1=O (stereo not shown)
Reply: 88

Ask: Please give the measured remaining at 1 h for this molecule: Cc1c(-c2ccccc2)oc2c(C(=O)OC3CCCN(C)C3)cccc2c1=O.Cl (stereo not shown) [Active compound 11, hydrochloride]
Reply: 100
